System: Plasmodium yoelii
Experiment: Antimalarial activity against chloroquine-resistant Plasmodium yoelii N-67infected in Swiss Albino mouse assessed as mouse survival on day 28 at 100 mg/kg, po once daily for 7 days measured on day 4 post infection
Format: functional, organism-based
Design: dose 100 mg/kg
Active and inactive are the calls of the source. The rule behind the calls is not given here.
Choose one outcome from this list and give only that: active, inactive

# fetch the recorded call for CCCCCCCCN(CCCCCCCC)CCC[C@H](C)Nc1ccnc2cc(Cl)ccc12 here
inactive

# fetch the recorded call for C[C@H](CCCN1CCCC1)Nc1ccnc2cc(Cl)ccc12 here
inactive

# fetch the recorded call for CCCCCCCCN(CCCCCCCC)CCC[C@@H](C)Nc1ccnc2cc(Cl)ccc12 here
inactive

# fetch the recorded call for C[C@H](CCCN1CCN(C)CC1)Nc1ccnc2cc(Cl)ccc12 here
active

# fetch the recorded call for C[C@@H](CCCN1CCN(C)CC1)Nc1ccnc2cc(Cl)ccc12 here
active
